Below are Rat.Clint_uL.min-1_million.cells-1 values measured for primary rat hepatocytes.
Value expressed in uL.min-1_million.cells-1; do not type the unit.

For the molecule O=C(NCc1ncc(C(F)(F)F)cc1Cl)c1c(Cl)cccc1Cl [Fluopicolide] , what Rat.Clint_uL.min-1_million.cells-1 is on record?
23.7

Which Rat.Clint_uL.min-1_million.cells-1 value is on record for O=c1c(-c2ccc(O)cc2)coc2cc(O)cc(O)c12 [Genistein] ?
68

Find the recorded Rat.Clint_uL.min-1_million.cells-1 belonging to O=C1C2(Cl)C3(Cl)C4(Cl)C(Cl)(Cl)C5(Cl)C3(Cl)C1(Cl)C5(Cl)C24Cl (stereo not shown) [Kepone] and report it.
0

Proceeding to the next molecule to report its Rat.Clint_uL.min-1_million.cells-1.
Fill in the blank: the reported Rat.Clint_uL.min-1_million.cells-1 of CCOC(=O)c1ccc(O)cc1 [Ethylparaben] is ____.
126
